// reported pIC50 per item
Target: UniProt:P0DTD1
Assay: Inhibition of full-length recombinant SARS-CoV-2 3CL protease expressed in Escherichia coli BL21 (DE3) using FAM- KTSAVLQSGFRKMEK-TAMRA as substrate pre-incubated for 1 hr with compound followed by substrate addition measured after 30 mins by FRET analysis
pIC50: −log10 of the molar value.
Measured Endpoint: pIC50

Smiles	Measured Value
CCC(CC)[C@H](NC(=O)C(F)(F)F)C(=O)N1C[C@H]2[C@@H]([C@H]1C(=O)NN(C[C@@H]1CCNC1=O)C(=O)[C@H](F)Cl)C2(C)C	8.15
CC(C)(C)[C@H](NC(=O)C(F)(F)F)C(=O)N1C[C@H]2[C@@H]([C@H]1C(=O)NN(C[C@@H]1CCNC1=O)C(=O)CCl)C2(C)C	8.22
CC[C@H](C)[C@H](NC(=O)C(F)(F)C(F)(F)F)C(=O)N1C[C@@H]2CCC[C@@H]2[C@H]1C(=O)NN(C[C@@H]1CCNC1=O)C(=O)[C@H](F)Cl	8.22
